System Name: EGFR (human)
Measurement Context: a431
Measurement Type: pIC50
// scale note: pIC50 = -log10(conc_M); give the bare number

The cases that follow already have their pIC50 on record.
| Compound Smiles | System Name | pIC50 |
| --- | --- | --- |
| C=C(CN(C)C)C(=O)N1CCC(Oc2cc3c(Nc4ccc(F)c(Cl)c4F)ncnc3cc2OC)CC1 | EGFR (human) | 8.57 |
| C=CC(=O)N1CC[C@H](Oc2cc3c(Nc4ccc(F)c(Cl)c4F)ncnc3cc2OC)C[C@H]1C(=O)NCC | EGFR (human) | 8.10 |
| C=CC(=O)N1CC[C@H](Oc2cc3c(Nc4ccc(F)c(Cl)c4F)ncnc3cc2OC)C[C@H]1C(=O)NCCOC | EGFR (human) | 8.47 |
| C=CC(=O)N1CCC(Oc2cc3c(Nc4cccc(SC)c4)ncnc3cc2OC)CC1 | EGFR (human) | 6.52 |
| CCN(CC)C/C=C/C(=O)N1CC[C@H](Oc2cc3c(Nc4ccc(F)c(Cl)c4F)ncnc3cc2OC)C1 | EGFR (human) | 7.55 |

Ask | Need pIC50, item "C#Cc1cccc(Nc2ncnc3cc(OC)c(OC4CCN(C(=O)C=C)CC4)cc23)c1"
Reply | 7.28

Ask | Need pIC50, item "C=CC(=O)N1CC[C@H](Oc2cc3c(Nc4ccc(F)c(Cl)c4F)ncnc3cc2OC)C[C@H]1C(=O)NCCC"
Reply | 7.92

Ask | Need pIC50, item "COc1cc2ncnc(Nc3cccc(Cl)c3F)c2cc1O[C@H]1CCN(C(=O)/C=C/CN(C)C)C1"
Reply | 8.10

Ask | Need pIC50, item "C=CC(=O)Nc1cccc(Nc2ncnc3cc(OC)c(OC4CCN(C(=O)C=C)CC4)cc23)c1"
Reply | 6.40

Ask | Need pIC50, item "C=CC(=O)N1CCC(Oc2cc3c(Nc4ccc(Cl)cc4)ncnc3cc2OC)CC1"
Reply | 8.34

Ask | Need pIC50, item "C=CC(=O)N1CC[C@H](Oc2cc3c(Nc4ccc(F)c(Cl)c4F)ncnc3cc2OC)C1"
Reply | 8.40

Ask | Need pIC50, item "COc1cc2ncnc(Nc3cccc(Cl)c3F)c2cc1OC1CCN(C(=O)/C=C/CN(C)C)CC1"
Reply | 7.12

Ask | Need pIC50, item "C=CC(=O)N1CCC(Oc2cc3c(Nc4cccc(C)c4)ncnc3cc2OC)CC1"
Reply | 9.00

Ask | Need pIC50, item "C=CC(=O)N1CCC(Oc2cc3c(Nc4cccc(C(F)(F)F)c4)ncnc3cc2OC)CC1"
Reply | 7.24

Ask | Need pIC50, item "COc1cc2ncnc(Nc3ccc(Cl)c(Cl)c3F)c2cc1OC1CCN(C(=O)/C=C/Cl)CC1"
Reply | 7.41

Ask | Need pIC50, item "C=CC(=O)N1CCC(Oc2cc3c(Nc4ccc(Cl)c(O)c4)ncnc3cc2OC)CC1"
Reply | 6.98

Ask | Need pIC50, item "C=CC(=O)N1CC[C@H](Oc2cc3c(Nc4ccc5c(cnn5Cc5cccc(F)c5)c4)ncnc3cc2OC)C1"
Reply | 7.72

Data credit: the Kinase Knowledgebase extract (Sharma et al. 2016)
